# measuredOn: SpLsb1
# methodSummary: SPOT peptide array binding signal intensity (averaged, normalized) (arbitrary units (background-subtracted, floor 0; scale differs between SH3 domains)); higher = stronger binding of the SH3 domain to the peptide
// values below are reported SPOT peptide array binding signal intensity
metric: SPOT peptide array binding signal intensity

{"binder": "SSSSTPPTLPPRRIE", "reported": 3060}
{"binder": "SRYRRPLTLLLLKPF", "reported": 3}
{"binder": "PSPSSSPPPIPKTAN", "reported": 1.5}
{"binder": "ILARAILTIPRVLDK", "reported": 2.25}
